# Target desc: Biotinylated amyloid-β peptide 1-40 (Aβ1-40)
# Measurement description: ELISA; competitive ELISA: NL1 (3.125 nM) coated on the plate; biotinylated Aβ1-40 (400 nM; Aβ40-1 as negative control) premixed 30 min with serially diluted NL1 or NL1-derived peptides; 4 h at room temperature; streptavidin-HRP; IC50 interpreted as KD
Where no end group is shown, it is not given here.
Entries and their Kd
Note: a bare number is incomplete; add the unit.

ITVNYRLG (also: tetramer: four copies coupled to a lysine backbone) [NLp2, NL1-derived synthetic peptide (tetramer on a lysine backbone)] :: 676 nM

Request: Look up Kd: SEGNRWSNSTKGLFQRA (also: tetramer: four copies coupled to a lysine backbone) [Neurolide, NL1-derived synthetic peptide (tetramer on a lysine backbone)]
Response: 35.3 nM

Where do these numbers come from? They come from paper PMC11790763.
